target: recombinant rat MASP2 active protease (amino acids 296-685, C-terminal His Tag) (rat, UniProt Q9JJS8 296-685); assay: cell-based or functional assay
Sequence (Q9JJS8 other isoform, or with tags, fused parts or gaps limits assumed): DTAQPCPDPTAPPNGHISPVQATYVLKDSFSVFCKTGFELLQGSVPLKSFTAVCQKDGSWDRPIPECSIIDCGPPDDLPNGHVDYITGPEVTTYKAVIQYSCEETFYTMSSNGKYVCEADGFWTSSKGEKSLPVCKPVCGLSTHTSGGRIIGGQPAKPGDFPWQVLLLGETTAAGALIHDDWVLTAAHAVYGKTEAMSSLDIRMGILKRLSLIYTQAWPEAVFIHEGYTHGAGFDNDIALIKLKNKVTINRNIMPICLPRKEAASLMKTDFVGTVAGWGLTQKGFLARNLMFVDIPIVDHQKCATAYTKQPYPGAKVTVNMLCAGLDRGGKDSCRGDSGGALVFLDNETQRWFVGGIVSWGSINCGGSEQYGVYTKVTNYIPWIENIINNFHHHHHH
Numbered stars: 1 amine (or outer) side, 2 acyl side, 3 side chain; on linkers, the order of the positions; unused ones are H or OH. Bridge positions count the residues as written; N and C are the ends. Square brackets hold non-standard residues; d marks the D form. Ends that are not written are not given here. Phe(2,5-diF) = O=C([C@H](Cc1cc(F)ccc1F)N[*:1])[*:2]; Phe(3-COOH) = N[C@@H](Cc1cccc(C(=O)O)c1)C(=O)O; Oic = O=C(O)[C@@H]1C[C@@H]2CCCC[C@@H]2N1; tBuAla = CC(C)(C)C[C@H](N)C(=O)O; Pen = CC(C)(S)[C@H](N)C(=O)O; NMeC = CN[C@@H](CS)C(=O)O; PEG2 = NCCOCCOCCC(=O)O; Sar = CNCC(=O)O
assay-metric: rat MASP2 IC50 (nM)

* [Sar]ICSRSLP[Oic]I[Pen]IPDA-OH (disulfide 3-11; N-terminus assumed; SMILES CC[C@H](C)[C@H](NC(=O)CNC)C(=O)N[C@H]1CSSC(C)(C)[C@@H](C(=O)N[C@H](C(=O)N2CCC[C@H]2C(=O)N[C@@H](CC(=O)O)C(=O)N[C@@H](C)C(=O)O)[C@@H](C)CC)NC(=O)[C@H]([C@@H](C)CC)NC(=O)[C@@H]2C[C@@H]3CCCC[C@@H]3N2C(=O)[C@@H]2CCCN2C(=O)[C@H](CC(C)C)NC(=O)[C@H](CO)NC(=O)[C@H](CCCNC(=N)N)NC(=O)[C@H](CO)NC1=O) [Example 494: ((N-Me)G)-IC+SRSLP-(Oic)-I-(Pen)+IPDA-OH] | 62
* AICSRS[Phe(2,5-diF)]PPI[NMeC]IPD-NH2 (disulfide 3-11; N-terminus assumed; SMILES CC[C@H](C)[C@H](NC(=O)[C@H](C)N)C(=O)N[C@H]1CSSC[C@@H](C(=O)N[C@H](C(=O)N2CCC[C@H]2C(=O)N[C@@H](CC(=O)O)C(N)=O)[C@@H](C)CC)N(C)C(=O)[C@H]([C@@H](C)CC)NC(=O)[C@@H]2CCCN2C(=O)[C@@H]2CCCN2C(=O)[C@H](Cc2cc(F)ccc2F)NC(=O)[C@H](CO)NC(=O)[C@H](CCCNC(=N)N)NC(=O)[C@H](CO)NC1=O) [Example 235: AIC+SRS-((2,5-Difluoro)F)-PPI-((N-Me)C)+IPD-NH2] | 29
* [Sar]ICSRS[tBuAla]PPI[Pen]IP[Phe(3-COOH)]-OH (disulfide 3-11; N-terminus assumed; SMILES CC[C@H](C)[C@H](NC(=O)CNC)C(=O)N[C@H]1CSSC(C)(C)[C@@H](C(=O)N[C@H](C(=O)N2CCC[C@H]2C(=O)N[C@@H](Cc2cccc(C(=O)O)c2)C(=O)O)[C@@H](C)CC)NC(=O)[C@H]([C@@H](C)CC)NC(=O)[C@@H]2CCCN2C(=O)[C@@H]2CCCN2C(=O)[C@H](CC(C)(C)C)NC(=O)[C@H](CO)NC(=O)[C@H](CCCNC(=N)N)NC(=O)[C@H](CO)NC1=O) [Example 482: ((N-Me)G)-IC+SRS-((tBu)A)-PPI-(Pen)+IP-((3-Carboxy)F)-OH] | 33
* GICSRSLP[Oic]ICIPD-OH (disulfide 3-11; N-terminus assumed; SMILES CC[C@H](C)[C@H](NC(=O)CN)C(=O)N[C@H]1CSSC[C@@H](C(=O)N[C@H](C(=O)N2CCC[C@H]2C(=O)N[C@@H](CC(=O)O)C(=O)O)[C@@H](C)CC)NC(=O)[C@H]([C@@H](C)CC)NC(=O)[C@@H]2C[C@@H]3CCCC[C@@H]3N2C(=O)[C@@H]2CCCN2C(=O)[C@H](CC(C)C)NC(=O)[C@H](CO)NC(=O)[C@H](CCCNC(=N)N)NC(=O)[C@H](CO)NC1=O) [Example 323: GIC+SRSLP-(Oic)-IC+IPD-OH] | 60.1
* [Sar]ICSRS[tBuAla]PPI[Pen]IP-{PEG2-OH} (disulfide 3-11) [Example 498: ((N-Me)G)-IC+SRS-((tBu)A)-PPI-(Pen)+IP-(PEG1(10 atoms))-OH] | 42
